melting point values, listed per item

Some solved entries appear below for comparison.
>  <Structure Notation>
CC(C)(C)[C@H]1C(O)=C(C2=NS(=O)(=O)c3c(CNS(=O)(=O)N4CCCC4)cccc32)C(=O)N1Cc1ccc(F)cc1

>  <Result>
112 to 125 °C

$$$$
>  <Structure Notation>
CC(C)(C)[C@H]1C(O)=C(C2=NS(=O)(=O)c3ccccc32)C(=O)N1Cc1ccc(F)c(F)c1

>  <Result>
80 to 89 °C

$$$$
>  <Structure Notation>
CC(C)(C)[C@H]1C(O)=C(C2=NS(=O)(=O)c3c2ccc2ccccc32)C(=O)N1Cc1ccc(F)cc1

>  <Result>
205 °C (dec.)

$$$$

Prompt: For O=S1(=O)N=C(c2nc(Cc3ccc(F)cc3)c3ccc(F)cc3c2O)c2cccc(Cl)c21 , what is its reported melting point?
Completion: > 275 °C
